system: HIV-1RF; assay: XTT cytoprotection assay (antiviral activity); assay type: cell-based; conditions: Human immunodeficiency virus 1; Table 5; XTT cytoprotection assay; read-out: Antiviral Activity EC50
pEC50: −log10 of the molar value.
Below: a set of entries, each annotated with reported pEC50.
property-measured: pEC50

INSERT INTO measurements (smi, property_measured, obs_value) VALUES
  ('CC(=O)NS(=O)(=O)c1ccc(NC(=O)c2ccccc2SC(=O)CCCC[n+]2ccccc2)cc1', 'pEC50', 5.21),
  ('CC(=O)NS(=O)(=O)c1ccc(NC(=O)c2ccccc2SC(=O)CCCCBr)cc1', 'pEC50', 5.42);

Value source: patent EP1087941B9
